This collection of values is drawn from patent US7825279B2.

I'd be grateful if you could share measured pIC50 for these entries.
- System: Plasmodium falciparum
- protocol.description: in vitro IC50 versus Plasmodium falciparum (P.f.)
- Format: cell-based
- condition.details: in vitro; read-out: P.f. IC50
Give bare numbers, as −log10 of the molar value.

Here are 4 compounds together with their reported answers.
I looked up CCOC(=O)NC(=NC(C)C)Nc1ccc2c(c1)Cc1cc(NC(=NC(C)C)NC(=O)OCC)ccc1-2 and its pIC50 for Plasmodium falciparum was 5.20

I looked up CCOC(=O)NC(=NC)Nc1ccc2c(c1)Cc1cc(NC(=NC)NC(=O)OCC)ccc1-2 and its pIC50 for Plasmodium falciparum was 6.00

I looked up CCOC(=O)NC(=N)Nc1ccc2c(c1)Cc1cc(NC(=N)NC(=O)OCC)ccc1-2 and its pIC50 for Plasmodium falciparum was 5.68

I looked up CCOC(=O)NC(=N)Nc1ccc2c(c1)C(=O)c1cc(NC(=N)NC(=O)OCC)ccc1-2 and its pIC50 for Plasmodium falciparum was 5.49

Would you be so kind as to report pIC50 for each listed record?
1. CC(C)NC(=N)Nc1ccc2c(c1)Cc1cc(NC(=N)NC(C)C)ccc1-2
2. CNC(=N)Nc1ccc2c(c1)Cc1cc(NC(=N)NC)ccc1-2

a:
[7.45, 8.00]
